Species: Rattus norvegicus
Experiment: DrugMatrix - Regimen: Daily Repeat
Format: toxicity, organism-based, Sprague-Dawley
Set-up: regimen Daily Repeat, gender Male, age 6-8 weeks
Settings: in vivo, po, 0 mg/kg, 72 h, tissue Blood, route oral GAVAGE, dose level Control, time 3 day, vehicle .5 % CMC
PROPERTY_LABEL: HEMOGLOBIN

In plain terms, `CN/C(=N/CCSCc1nc[nH]c1C)NC#N` has a documented HEMOGLOBIN of 13.82 G/DL

In plain terms, O=C1Nc2ccc(Cl)cc2C(c2ccccc2Cl)=NC1O (stereo not given) has a documented HEMOGLOBIN of 13.68 G/DL

In plain terms, `CN(C/C=C/C#CC(C)(C)C)Cc1cccc2ccccc12` has a documented HEMOGLOBIN of 13.98 G/DL

In plain terms, `CN(C)[C@@H]1C(O)=C(C(N)=O)C(=O)[C@@]2(O)C(O)=C3C(=O)c4c(O)ccc(Cl)c4[C@@](C)(O)[C@H]3C[C@@H]12` has a documented HEMOGLOBIN of 13.82 G/DL

In plain terms, Cn1c(=O)c2c(ncn2CC(O)CO)n(C)c1=O (stereo not given) has a documented HEMOGLOBIN of 13.82 G/DL

In plain terms, `O=C1CN=C(c2ccccc2Cl)c2cc([N+](=O)[O-])ccc2N1` has a documented HEMOGLOBIN of 13.82 G/DL

In plain terms, `Clc1ccccc1CN1CCc2sccc2C1` has a documented HEMOGLOBIN of 14.58 G/DL

In plain terms, `COC1=C(OC)C(=O)C(CCCCCCCCCCO)=C(C)C1=O` has a documented HEMOGLOBIN of 13.82 G/DL

In plain terms, O=C1C(CC[S+]([O-])c2ccccc2)C(=O)N(c2ccccc2)N1c1ccccc1 (stereo not given) has a documented HEMOGLOBIN of 13.68 G/DL

In plain terms, `CC(=O)Oc1ccc(C(c2ccc(OC(C)=O)cc2)c2ccccn2)cc1` has a documented HEMOGLOBIN of 14.26 G/DL

In plain terms, `COc1ccc(C2C(=O)c3ccccc3C2=O)cc1` has a documented HEMOGLOBIN of 14.58 G/DL

In plain terms, `COc1cc2nc(N3CCN(C(=O)c4ccco4)CC3)nc(N)c2cc1OC` has a documented HEMOGLOBIN of 13.68 G/DL

In plain terms, `C[C@H]1O[C@@H](n2cc(F)c(=O)[nH]c2=O)[C@H](O)[C@@H]1O` has a documented HEMOGLOBIN of 13.82 G/DL

In plain terms, NC1CCN(c2nc3c(cc2F)c(=O)c(C(=O)O)cn3-c2ccc(F)cc2F)C1 (stereo not given) has a documented HEMOGLOBIN of 13.98 G/DL

In plain terms, CC(C(=O)O)c1ccc2oc(-c3ccc(Cl)cc3)nc2c1 (stereo not given) has a documented HEMOGLOBIN of 13.48 G/DL

###

Species on record: Rattus norvegicus
Test: DrugMatrix - Regimen: Daily Repeat
Type: toxicity, organism-based, Sprague-Dawley
Set-up: regimen Daily Repeat, gender Male, age 6-8 weeks
Settings: in vivo, ip, 0 mg/kg, […], tissue Blood, route intraperitoneal, dose level Control, time 14 day, vehicle 100 % SALINE
PROPERTY_LABEL: ABSOLUTE MONOCYTE (cells/µL)
Just the number please, in cells/µL, no unit attached.

In plain terms, `GENTAMICIN` has a documented ABSOLUTE MONOCYTE of 400

###

For each of the compounds below, state its EOSINOPHIL.
Species: Rattus norvegicus
Assay: DrugMatrix - Regimen: Daily Repeat
Type: toxicity, organism-based, Sprague-Dawley
Parameters: regimen Daily Repeat, gender Male, age 6-8 weeks
Settings: in vivo, po, 50 mg/kg, 72 h, tissue Blood, route oral GAVAGE, dose level Low, time 3 day, vehicle .5 % CMC
Just the number please, in %, no unit attached.

In plain terms, Cc1cccc(C)c1OCC(C)N (centres undefined) has a documented EOSINOPHIL of 0.67

In plain terms, NC1CCN(c2nc3c(cc2F)c(=O)c(C(=O)O)cn3-c2ccc(F)cc2F)C1 (centres undefined) has a documented EOSINOPHIL of 0

In plain terms, `CN(C)[C@@H]1C(O)=C(C(N)=O)C(=O)[C@@]2(O)C(O)=C3C(=O)c4c(O)ccc(Cl)c4[C@@](C)(O)[C@H]3C[C@@H]12` has a documented EOSINOPHIL of 1

In plain terms, CCN1CCC[C@H]1CNC(=O)c1cc(S(N)(=O)=O)ccc1OC [LEVOSULPIRIDE] has a documented EOSINOPHIL of 0.33

###

Species: Rattus norvegicus
Test: DrugMatrix - Regimen: Daily Repeat
Assay type: toxicity, organism-based, Sprague-Dawley
Parameters: regimen Daily Repeat, gender Male, age 6-8 weeks
Settings: in vivo, po, 2000 mg/kg, 72 h, tissue Plasma, route oral GAVAGE, dose level High, time 3 day, vehicle .5 % CMC
// returns No unless TOTAL PROTEIN is strictly below 6 G/DL, in which case Yes

Given the entry O=C1Nc2ccc(Cl)cc2C(c2ccccc2Cl)=NC1O (stereo unspecified) , would its reported TOTAL PROTEIN be below 6 G/DL?
No

Given the entry `CN/C(=N/CCSCc1nc[nH]c1C)NC#N` , would its reported TOTAL PROTEIN be below 6 G/DL?
Yes

Given the entry `COc1cc2nc(N3CCN(C(=O)c4ccco4)CC3)nc(N)c2cc1OC` , would its reported TOTAL PROTEIN be below 6 G/DL?
Yes

###

Organism: Rattus norvegicus
Test: DrugMatrix - Regimen: Daily Repeat
Type: toxicity, organism-based, Sprague-Dawley
Parameters: regimen Daily Repeat, gender Male, age 6-8 weeks
Details: in vivo, po, 0 mg/kg, 120 h, tissue Blood, route oral GAVAGE, dose level Control, time 5 day, […]
For each of the compounds below, state its ABSOLUTE MONOCYTE.

In plain terms, `CO[C@H]1/C=C/O[C@@]2(C)Oc3c(C)c(O)c4c(O)c(c(/C=N/N5CCN(C6CCCC6)CC5)c(O)c4c3C2=O)NC(=O)/C(C)=C\C=C\[C@H](C)[C@H](O)[C@@H](C)[C@@H](O)[C@@H](C)[C@H](OC(C)=O)[C@@H]1C` has a documented ABSOLUTE MONOCYTE of 187 CELLS/uL

In plain terms, CC(C)(C)NC(=O)[C@H]1CC[C@H]2[C@@H]3CC[C@H]4NC(=O)C=C[C@]4(C)[C@H]3CC[C@]12C [FINASTERIDE] has a documented ABSOLUTE MONOCYTE of 98.67 CELLS/uL

In plain terms, COc1cc(N)c(Cl)cc1C(=O)NC1CCN(CCCOc2ccc(F)cc2)CC1OC (centres undefined) [CISAPRIDE] has a documented ABSOLUTE MONOCYTE of 47 CELLS/uL

In plain terms, Clc1ccc(COC(Cn2ccnc2)c2ccc(Cl)cc2Cl)cc1 (centres undefined) has a documented ABSOLUTE MONOCYTE of 102.67 CELLS/uL

###

Organism: Rattus norvegicus
Test: DrugMatrix - Regimen: Daily Repeat
Assay type: toxicity, organism-based, Sprague-Dawley
Set-up: regimen Daily Repeat, gender Male, age 6-8 weeks
Settings: in vivo, po, 2000 mg/kg, 120 h, tissue Plasma, route oral GAVAGE, dose level High, time 5 day, vehicle .5 % CMC
For each of the compounds below, state its TOTAL BILIRUBIN.
Just the number please, in mg/dL, no unit attached.

In plain terms, CN/C(=N/CCSCc1nc[nH]c1C)NC#N [CIMETIDINE] has a documented TOTAL BILIRUBIN of 0.2

In plain terms, COc1cc2nc(N3CCN(C(=O)c4ccco4)CC3)nc(N)c2cc1OC [PRAZOSIN] has a documented TOTAL BILIRUBIN of 0.2

In plain terms, O=C1Nc2ccc(Cl)cc2C(c2ccccc2Cl)=NC1O (centres undefined) [LORAZEPAM] has a documented TOTAL BILIRUBIN of 0.1

In plain terms, CC1(C)S[C@@H]2[C@H](NC(=O)[C@H](N)c3ccccc3)C(=O)N2[C@H]1C(=O)O [AMPICILLIN] has a documented TOTAL BILIRUBIN of 0.17

###

Species: Rattus norvegicus
Assay: DrugMatrix - Regimen: Daily Repeat
Format: toxicity, organism-based, Sprague-Dawley
Set-up: regimen Daily Repeat, gender Male, age 6-8 weeks
Conditions: in vivo, po, 50 mg/kg, 72 h, tissue Blood, route oral GAVAGE, dose level Low, time 3 day, vehicle .5 % CMC
PROPERTY_LABEL: ERYTHROCYTE COUNT (x10E6/uL)
Just the number please, in x10E6/uL, no unit attached.

In plain terms, CCN1CCC[C@H]1CNC(=O)c1cc(S(N)(=O)=O)ccc1OC [LEVOSULPIRIDE] has a documented ERYTHROCYTE COUNT of 5.59

In plain terms, NC1CCN(c2nc3c(cc2F)c(=O)c(C(=O)O)cn3-c2ccc(F)cc2F)C1 (centres undefined) [TOSUFLOXACIN] has a documented ERYTHROCYTE COUNT of 6.96

In plain terms, CN(C)[C@@H]1C(O)=C(C(N)=O)C(=O)[C@@]2(O)C(O)=C3C(=O)c4c(O)ccc(Cl)c4[C@@](C)(O)[C@H]3C[C@@H]12 [CHLORTETRACYCLINE] has a documented ERYTHROCYTE COUNT of 5.49

In plain terms, Cc1cccc(C)c1OCC(C)N (centres undefined) [MEXILETINE] has a documented ERYTHROCYTE COUNT of 5.83
